# Study System: O-GlcNAcase (UniProt Q8VIJ5)
# Assay type: cell-based
# Measurement Conditions: read-out: OGA cellular inhibition (EC50); cells expressing endogenous O-GlcNAcase (such as rat B35, rat PC-12, human SH-SY5Y), approximately 16 hours treatment
Can you tell me EC50 for the items I'm about to list?

Memo: CCNC1=N[C@@H]2[C@@H](O)[C@H](O)[C@@H](CN=[N+]=[N-])O[C@@H]2S1 , reported EC50: 100 to 500 nM

Memo: CCNC1=N[C@@H]2[C@@H](O)[C@H](O)[C@@H](CF)O[C@@H]2S1 , reported EC50: 100 to 500 nM
